Tested on: KRAS-mutant PDC tumor spheroid with HUVEC/MSC, viability
Assay: Anticancer human tumor 327498-153-R-J2-PDC patient-derived uterine carcinosarcoma cell line growth inhibition [KRAS2]; active means viability on the fitted dose curve at most 10% of control; inactive means the rest
Conditions: second compound 1 µM; first compound 1 µM
Possible outcomes: active, inactive

{"compound": "CC1(C)CCC(CN2CCN(c3ccc(C(=O)NS(=O)(=O)c4ccc(NCC5CCOCC5)c([N+](=O)[O-])c4)c(Oc4cnc5[nH]ccc5c4)c3)CC2)=C(c2ccc(Cl)cc2)C1 + CC1OCC2(CCN(c3cnc(Sc4ccnc(N)c4Cl)c(N)n3)CC2)C1N", "class-assignment": "inactive"}
{"compound": "COc1cc2nccc(Oc3ccc(NC(=O)C4(C(=O)Nc5ccc(F)cc5)CC4)cc3)c2cc1OC + C=CC(=O)N1CCN(c2nc(OCC3CCCN3C)nc3c2CCN(c2cccc4cccc(C)c24)C3)CC1CC#N", "class-assignment": "inactive"}
{"compound": "CC(C)NCC(C(=O)N1CCN(c2ncnc3c2C(C)CC3O)CC1)c1ccc(Cl)cc1 (stereo not given) + C=CC(=O)N1CCN(c2nc(OCC3CCCN3C)nc3c2CCN(c2cccc4cccc(C)c24)C3)CC1CC#N", "class-assignment": "inactive"}
{"compound": "CC(C)NCC(C(=O)N1CCN(c2ncnc3c2C(C)CC3O)CC1)c1ccc(Cl)cc1 (stereo not given) + CNCc1ccccc1-c1csc(C(C)Nc2nc(C)nc3cc(OC)c(OC)cc23)c1", "class-assignment": "inactive"}
{"compound": "CCNC(=O)CC1N=C(c2ccc(Cl)cc2)c2cc(OC)ccc2-n2c(C)nnc21 (stereo not given) + C=CC(=O)N1CCN(c2nc(OCC3CCCN3C)nc3c2CCN(c2cccc4cccc(C)c24)C3)CC1CC#N", "class-assignment": "inactive"}
{"compound": "COc1cc2nccc(Oc3ccc(NC(=O)C4(C(=O)Nc5ccc(F)cc5)CC4)cc3)c2cc1OC + CC1OCC2(CCN(c3cnc(Sc4ccnc(N)c4Cl)c(N)n3)CC2)C1N", "class-assignment": "inactive"}
{"compound": "CC(=O)OC12COC1CC(O)C1(C)C(=O)C(O)C3=C(C)C(OC(=O)C(O)C(NC(=O)OC(C)(C)C)c4ccccc4)CC(O)(C(OC(=O)c4ccccc4)C21)C3(C)C (stereo not given) + CC1OCC2(CCN(c3cnc(Sc4ccnc(N)c4Cl)c(N)n3)CC2)C1N", "class-assignment": "active"}
{"compound": "CCN1CCN(Cc2ccc(Nc3ncc(F)c(-c4cc(F)c5nc(C)n(C(C)C)c5c4)n3)nc2)CC1 + C=CC(=O)N1CCN(c2nc(OCC3CCCN3C)nc3c2CCN(c2cccc4cccc(C)c24)C3)CC1CC#N", "class-assignment": "inactive"}
{"compound": "O=C(c1cc(Cc2n[nH]c(=O)c3ccccc23)ccc1F)N1CCN(C(=O)C2CC2)CC1 + C=CC(=O)N1CCN(c2nc(OCC3CCCN3C)nc3c2CCN(c2cccc4cccc(C)c24)C3)CC1CC#N", "class-assignment": "inactive"}
{"compound": "COC(=O)c1ccc2c(C(=Nc3ccc(N(C)C(=O)CN4CCN(C)CC4)cc3)c3ccccc3)c(O)[nH]c2c1 + CNCc1ccccc1-c1csc(C(C)Nc2nc(C)nc3cc(OC)c(OC)cc23)c1", "class-assignment": "inactive"}

* * *

Item-by-item account of viability, T/C
System: KRAS-mutant PDC tumor spheroid with HUVEC/MSC, viability
Test: Anticancer human tumor 327498-153-R-J2-PDC cell line growth inhibition [KRAS2];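 further: spheroids exposed to agents for seven days before reading; 100% = DMSO vehicle wells so lower means fewer viable cells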
Settings: compound 0.00316 µM; hits give low values
property: viability, T/C

{"smi": "CCN1CCN(Cc2ccc(Nc3ncc(F)c(-c4cc(F)c5nc(C)n(C(C)C)c5c4)n3)nc2)CC1", "system-under-test": "KRAS-mutant PDC tumor spheroid with HUVEC/MSC, viability", "experimental-result": "88.7% [middle of 5 runs]"}
{"smi": "CN(C)C/C=C/C(=O)Nc1cc2c(Nc3ccc(F)c(Cl)c3)ncnc2cc1O[C@H]1CCOC1", "system-under-test": "KRAS-mutant PDC tumor spheroid with HUVEC/MSC, viability", "experimental-result": "95.1% [middle of 5 runs]"}
{"smi": "CC(C)n1nc(-c2ccc3oc(N)nc3c2)c2c(N)ncnc21", "system-under-test": "KRAS-mutant PDC tumor spheroid with HUVEC/MSC, viability", "experimental-result": "77.7% [middle of 5 runs]"}
{"smi": "CC(=O)Nc1cccc(-n2c(=O)n(C3CC3)c(=O)c3c(Nc4ccc(I)cc4F)n(C)c(=O)c(C)c32)c1", "system-under-test": "KRAS-mutant PDC tumor spheroid with HUVEC/MSC, viability", "experimental-result": "63.5% [middle of 5 runs]"}
{"smi": "Cn1ncnc1[C@H]1c2n[nH]c(=O)c3cc(F)cc(c23)N[C@@H]1c1ccc(F)cc1", "system-under-test": "KRAS-mutant PDC tumor spheroid with HUVEC/MSC, viability", "experimental-result": "94.2% [middle of 5 runs]"}

* * *

System: KRAS-mutant PDC tumor spheroid with HUVEC/MSC, viability
Test: Anticancer human tumor 327498-153-R-J2-PDC cell line growth inhibition [KRAS2]; active means viability on the fitted dose curve at most 10% of control; inactive means the rest;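 further: spheroids exposed to agents for seven days before reading; 100% = DMSO vehicle wells so lower means fewer viable cells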
Conditions: second compound 0.316 µM; first compound 1 µM
Classes used: active, inactive

{"molecule": "CCN1CCN(Cc2ccc(Nc3ncc(F)c(-c4cc(F)c5nc(C)n(C(C)C)c5c4)n3)nc2)CC1 + C=CC(=O)N1CCN(c2nc(=O)n(-c3c(C)ccnc3C(C)C)c3nc(-c4c(O)cccc4F)c(F)cc23)C(C)C1", "class-assignment": "inactive"}
{"molecule": "CC1COCCN1c1cc(-c2ccnn2C)c2ccnc(-c3ccn[nH]3)c2n1 (stereo not given) + COc1cc2nc(C)nc(NC(C)c3cc(N)cc(C(F)(F)F)c3)c2cc1OC1CCOC1", "class-assignment": "active"}
{"molecule": "CC1COCCN1c1cc(-c2ccnn2C)c2ccnc(-c3ccn[nH]3)c2n1 (stereo not given) + CNCc1ccccc1-c1csc(C(C)Nc2nc(C)nc3cc(OC)c(OC)cc23)c1", "class-assignment": "active"}
{"molecule": "COc1cc(Nc2ncc3c(n2)-c2ccc(Cl)cc2C(c2c(F)cccc2OC)=NC3)ccc1C(=O)O + COc1cc2nc(C)nc(NC(C)c3cc(N)cc(C(F)(F)F)c3)c2cc1OC1CCOC1", "class-assignment": "inactive"}
{"molecule": "COC(=O)c1ccc2c(C(=Nc3ccc(N(C)C(=O)CN4CCN(C)CC4)cc3)c3ccccc3)c(O)[nH]c2c1 + COc1cc2nc(C)nc(NC(C)c3cc(N)cc(C(F)(F)F)c3)c2cc1OC1CCOC1", "class-assignment": "inactive"}
{"molecule": "CC(C)NCC(C(=O)N1CCN(c2ncnc3c2C(C)CC3O)CC1)c1ccc(Cl)cc1 (stereo not given) + CNCc1ccccc1-c1csc(C(C)Nc2nc(C)nc3cc(OC)c(OC)cc23)c1", "class-assignment": "inactive"}
{"molecule": "CC(=O)OC12COC1CC(O)C1(C)C(=O)C(O)C3=C(C)C(OC(=O)C(O)C(NC(=O)OC(C)(C)C)c4ccccc4)CC(O)(C(OC(=O)c4ccccc4)C21)C3(C)C (stereo not given) + C=CC(=O)N1CCN(c2nc(=O)n(-c3c(C)ccnc3C(C)C)c3nc(-c4c(O)cccc4F)c(F)cc23)C(C)C1", "class-assignment": "active"}
{"molecule": "COc1cc(Nc2ncc3c(n2)-c2ccc(Cl)cc2C(c2c(F)cccc2OC)=NC3)ccc1C(=O)O + C=CC(=O)N1CCN(c2nc(OCC3CCCN3C)nc3c2CCN(c2cccc4cccc(C)c24)C3)CC1CC#N", "class-assignment": "active"}
{"molecule": "CCNC(=O)CC1N=C(c2ccc(Cl)cc2)c2cc(OC)ccc2-n2c(C)nnc21 (stereo not given) + COc1cc2nc(C)nc(NC(C)c3cc(N)cc(C(F)(F)F)c3)c2cc1OC1CCOC1", "class-assignment": "inactive"}
{"molecule": "CCN1CCN(Cc2ccc(Nc3ncc(F)c(-c4cc(F)c5nc(C)n(C(C)C)c5c4)n3)nc2)CC1 + CC1OCC2(CCN(c3cnc(Sc4ccnc(N)c4Cl)c(N)n3)CC2)C1N", "class-assignment": "inactive"}

* * *

Tested on: KRAS-mutant PDC tumor spheroid with HUVEC/MSC, viability
Assay: Anticancer human tumor 327498-153-R-J2-PDC cell line growth inhibition [KRAS2];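 further: spheroids exposed to agents for seven days before reading; 100% = DMSO vehicle wells so lower means fewer viable cells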
Conditions: second compound 3.16 µM; first compound 0.0316 µM; hits give low values

{"molecule": "CC1OCC2(CCN(c3cnc(Sc4ccnc(N)c4Cl)c(N)n3)CC2)C1N (configuration not stated) + C=CC(=O)N1CCN(c2nc(=O)n(-c3c(C)ccnc3C(C)C)c3nc(-c4c(O)cccc4F)c(F)cc23)C(C)C1", "viability, T/C": "41.8%"}
{"molecule": "COC(=O)c1ccc2c(C(=Nc3ccc(N(C)C(=O)CN4CCN(C)CC4)cc3)c3ccccc3)c(O)[nH]c2c1 + C=CC(=O)N1CCN(c2nc(OCC3CCCN3C)nc3c2CCN(c2cccc4cccc(C)c24)C3)CC1CC#N", "viability, T/C": "0.33%"}
{"molecule": "CC(C)n1nc(-c2ccc3oc(N)nc3c2)c2c(N)ncnc21 + CC1OCC2(CCN(c3cnc(Sc4ccnc(N)c4Cl)c(N)n3)CC2)C1N", "viability, T/C": "4.67%"}
{"molecule": "CC(=O)OC12COC1CC(O)C1(C)C(=O)C(O)C3=C(C)C(OC(=O)C(O)C(NC(=O)OC(C)(C)C)c4ccccc4)CC(O)(C(OC(=O)c4ccccc4)C21)C3(C)C (configuration not stated) + C=CC(=O)N1CCN(c2nc(=O)n(-c3c(C)ccnc3C(C)C)c3nc(-c4c(O)cccc4F)c(F)cc23)C(C)C1", "viability, T/C": "7.63%"}
{"molecule": "CC(C)n1nc(-c2ccc3oc(N)nc3c2)c2c(N)ncnc21 + CNCc1ccccc1-c1csc(C(C)Nc2nc(C)nc3cc(OC)c(OC)cc23)c1", "viability, T/C": "0.04%"}
{"molecule": "CC1COCCN1c1cc(-c2ccnn2C)c2ccnc(-c3ccn[nH]3)c2n1 (configuration not stated) + C=CC(=O)N1CCN(c2nc(=O)n(-c3c(C)ccnc3C(C)C)c3nc(-c4c(O)cccc4F)c(F)cc23)C(C)C1", "viability, T/C": "19.8%"}
{"molecule": "Cn1ncnc1[C@H]1c2n[nH]c(=O)c3cc(F)cc(c23)N[C@@H]1c1ccc(F)cc1 + CC1OCC2(CCN(c3cnc(Sc4ccnc(N)c4Cl)c(N)n3)CC2)C1N", "viability, T/C": "11.2%"}
{"molecule": "CCNC(=O)CC1N=C(c2ccc(Cl)cc2)c2cc(OC)ccc2-n2c(C)nnc21 (configuration not stated) + CC1OCC2(CCN(c3cnc(Sc4ccnc(N)c4Cl)c(N)n3)CC2)C1N", "viability, T/C": "31.3%"}
{"molecule": "CC(C)NCC(C(=O)N1CCN(c2ncnc3c2C(C)CC3O)CC1)c1ccc(Cl)cc1 (configuration not stated) + C=CC(=O)N1CCN(c2nc(OCC3CCCN3C)nc3c2CCN(c2cccc4cccc(C)c24)C3)CC1CC#N", "viability, T/C": "0.26%"}
{"molecule": "CCN1CCN(Cc2ccc(Nc3ncc(F)c(-c4cc(F)c5nc(C)n(C(C)C)c5c4)n3)nc2)CC1 + C=CC(=O)N1CCN(c2nc(OCC3CCCN3C)nc3c2CCN(c2cccc4cccc(C)c24)C3)CC1CC#N", "viability, T/C": "0.46%"}
{"molecule": "CCNC(=O)CC1N=C(c2ccc(Cl)cc2)c2cc(OC)ccc2-n2c(C)nnc21 (configuration not stated) + C=CC(=O)N1CCN(c2nc(=O)n(-c3c(C)ccnc3C(C)C)c3nc(-c4c(O)cccc4F)c(F)cc23)C(C)C1", "viability, T/C": "55.4%"}
{"molecule": "CN(C)C/C=C/C(=O)Nc1cc2c(Nc3ccc(F)c(Cl)c3)ncnc2cc1O[C@H]1CCOC1 + CC1OCC2(CCN(c3cnc(Sc4ccnc(N)c4Cl)c(N)n3)CC2)C1N", "viability, T/C": "32.7%"}
{"molecule": "CC(C)NCC(C(=O)N1CCN(c2ncnc3c2C(C)CC3O)CC1)c1ccc(Cl)cc1 (configuration not stated) + CC1OCC2(CCN(c3cnc(Sc4ccnc(N)c4Cl)c(N)n3)CC2)C1N", "viability, T/C": "20.9%"}
{"molecule": "COc1cc(Nc2ncc3c(n2)-c2ccc(Cl)cc2C(c2c(F)cccc2OC)=NC3)ccc1C(=O)O + CNCc1ccccc1-c1csc(C(C)Nc2nc(C)nc3cc(OC)c(OC)cc23)c1", "viability, T/C": "0.1%"}
{"molecule": "CC1OCC2(CCN(c3cnc(Sc4ccnc(N)c4Cl)c(N)n3)CC2)C1N (configuration not stated) + C=CC(=O)N1CCN(c2nc(OCC3CCCN3C)nc3c2CCN(c2cccc4cccc(C)c24)C3)CC1CC#N", "viability, T/C": "0.14%"}
{"molecule": "Cn1ncnc1[C@H]1c2n[nH]c(=O)c3cc(F)cc(c23)N[C@@H]1c1ccc(F)cc1 + CNCc1ccccc1-c1csc(C(C)Nc2nc(C)nc3cc(OC)c(OC)cc23)c1", "viability, T/C": "0.06%"}
{"molecule": "CC(C)n1nc(-c2ccc3oc(N)nc3c2)c2c(N)ncnc21 + C=CC(=O)N1CCN(c2nc(OCC3CCCN3C)nc3c2CCN(c2cccc4cccc(C)c24)C3)CC1CC#N", "viability, T/C": "0.14%"}
{"molecule": "CN(C)C/C=C/C(=O)Nc1cc2c(Nc3ccc(F)c(Cl)c3)ncnc2cc1O[C@H]1CCOC1 + C=CC(=O)N1CCN(c2nc(=O)n(-c3c(C)ccnc3C(C)C)c3nc(-c4c(O)cccc4F)c(F)cc23)C(C)C1", "viability, T/C": "99.2%"}
{"molecule": "CCN1CCN(Cc2ccc(Nc3ncc(F)c(-c4cc(F)c5nc(C)n(C(C)C)c5c4)n3)nc2)CC1 + CNCc1ccccc1-c1csc(C(C)Nc2nc(C)nc3cc(OC)c(OC)cc23)c1", "viability, T/C": "0.11%"}
{"molecule": "CCN1CCN(Cc2ccc(Nc3ncc(F)c(-c4cc(F)c5nc(C)n(C(C)C)c5c4)n3)nc2)CC1 + COc1cc2nc(C)nc(NC(C)c3cc(N)cc(C(F)(F)F)c3)c2cc1OC1CCOC1", "viability, T/C": "31%"}
{"molecule": "CC(=O)OC12COC1CC(O)C1(C)C(=O)C(O)C3=C(C)C(OC(=O)C(O)C(NC(=O)OC(C)(C)C)c4ccccc4)CC(O)(C(OC(=O)c4ccccc4)C21)C3(C)C (configuration not stated) + CNCc1ccccc1-c1csc(C(C)Nc2nc(C)nc3cc(OC)c(OC)cc23)c1", "viability, T/C": "0.04%"}
{"molecule": "O=C(c1cc(Cc2n[nH]c(=O)c3ccccc23)ccc1F)N1CCN(C(=O)C2CC2)CC1 + C=CC(=O)N1CCN(c2nc(=O)n(-c3c(C)ccnc3C(C)C)c3nc(-c4c(O)cccc4F)c(F)cc23)C(C)C1", "viability, T/C": "66%"}
